# EXPERIMENTAL SYSTEM: DLA2 ΔCat 315 (Chlamydomonas reinhardtii, UniProt A0A2K3DW88 32-314)
# PROCEDURE TEXT: MST
MEASURED METRIC: pKd
Answers are plain numbers, as −log10 of the molar value.

Quick one: pKd of UUUACGGAGAAAUUAAAACUUUAAAAAAAUUAACAUAUGACCAUGGAUC (ssRNA) [psbA 5'-UTR probe native] ?
6.22
